# protocol text: survival rescue of mitochondrial mutant cells in low glucose, primary screen, MELAS cybrids, Rieske KO mouse fibroblasts, CellTiter-Glo (AID 1508586);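 also: test concentration not given here; z relative to plate mean and SD of compound and empty wells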
# condition info: Rieske KO mouse fibroblast survival, CellTiter-Glo 72 h
quantity: z-score

{"columns": ["compound", "quantity", "reported"],
 "data": [
  ["CC1=C(/C=C/C(C)=C/C=C/C(C)=C/C(=O)Nc2ccc(O)cc2)C(C)(C)CCC1", "z-score", 0.408],
  ["CN1[C@@H]2CC[C@H]1CC(OC(c1ccccc1)c1ccccc1)C2 (stereo not given in full)", "z-score", 0.0522],
  ["C#C[C@]1(O)CC[C@H]2[C@@H]3CCC4=C(CCC(=O)C4)[C@H]3CC[C@@]21C", "z-score", 0.808],
  ["COc1cc2c(cc1OC)-c1cc3ccc(OC)c(OC)c3c[n+]1CC2", "z-score", 0.0197],
  ["O=C(Nc1ccccc1)OCC(CN1CCCCC1)OC(=O)Nc1ccccc1 (stereo not given)", "z-score", -0.0131]
]}
